# System: Saccharomyces cerevisiae BY4741 SeMeCo community
# experiment summary: z-score of subpopulation abundance vs DMSO median, subpopulation auxotrophic for H; higher = larger share of this subpopulation than in DMSO controls
# experimental conditions: 10 µM; 24 h; SM minimal medium; subpopulation (auxotrophy): H
Where a name gives a salt, the structure may show the parent alone.
Returns the class for an entry based on its z-score of subpopulation abundance. Class ranges: one = under -0.4, two = from -0.4 up to 0.3, three = 0.3 and over

INSERT INTO results (compound, experimental_system, category) VALUES
  ('Cc1c(-c2ccccc2)oc2c(C(=O)OCCN3CCCCC3)cccc2c1=O [Flavoxate HCl]', 'Saccharomyces cerevisiae BY4741 SeMeCo community', 'one'),
  ('CC(C)NNC(=O)c1ccncc1', 'Saccharomyces cerevisiae BY4741 SeMeCo community', 'two'),
  ('N#C/C(=C1/SC[C@@H](c2ccc(Cl)cc2Cl)S1)n1ccnc1', 'Saccharomyces cerevisiae BY4741 SeMeCo community', 'three'),
  ('Cc1c[nH]c(=O)[nH]c1=O', 'Saccharomyces cerevisiae BY4741 SeMeCo community', 'two'),
  ('C=CC1=C(C(=O)O)N2C(=O)[C@@H](NC(=O)/C(=N\OCC(=O)O)c3csc(N)n3)[C@H]2SC1', 'Saccharomyces cerevisiae BY4741 SeMeCo community', 'one'),
  ('Clc1ccc(CCC(Cn2ccnc2)Sc2c(Cl)cccc2Cl)cc1 (stereo unspecified) [Butoconazole nitrate]', 'Saccharomyces cerevisiae BY4741 SeMeCo community', 'three');

For the next question, use this compound.
INPUT: Form: Item = CC(C)(C)C(=O)OCOC(=O)[C@@H]1N2C(=O)[C@@H](/N=C/N3CCCCCC3)[C@H]2SC1(C)C [Pivmecillinam hydrochloride] ; Class = ?
OUTPUT: two

----------
# System: Saccharomyces cerevisiae BY4741 SeMeCo community
# experiment summary: mean cell size (pixel area) (pixels); higher = larger cells
# experimental conditions: 10 µM; 24 h; SM minimal medium
Kindly state mean cell size for each of the entries shown.

Known results for compounds:
INSERT INTO results (compound, measurement_name, value_measured) VALUES
  ('O=c1cc(-c2ccc(O)c(O)c2)oc2cc(O)cc(O)c12 [Luteolin]', 'mean cell size', 12.5),
  ('O=C(Cn1cnnn1)N[C@@H]1C(=O)N2C(C(=O)O)=C(CSc3nncs3)CS[C@H]12 [Ceftezole sodium]', 'mean cell size', 12.3),
  ('Oc1c(Br)cc(Br)c2cccnc12 [Broxyquinoline]', 'mean cell size', 14.7);

Attention now turns to another entry.
INPUT: Which measured mean cell size value corresponds to NCC[C@H](O)C(=O)N[C@@H]1C[C@H](N)[C@@H](O[C@H]2O[C@H](CN)[C@@H](O)[C@H](O)[C@H]2O)[C@H](O)[C@H]1O[C@H]1O[C@H](CO)[C@@H](O)[C@H](N)[C@H]1O [Amikacin hydrate] ?
OUTPUT: 12.2

----------
# Test system: Saccharomyces cerevisiae BY4741 SeMeCo community
# experiment summary: z-score of subpopulation abundance vs DMSO median, subpopulation auxotrophic for HM; higher = larger share of this subpopulation than in DMSO controls
# experimental conditions: 10 µM; 24 h; SM minimal medium; subpopulation (auxotrophy): HM
Where a name gives a salt, the structure may show the parent alone.
Returns the class for an entry based on its z-score of subpopulation abundance. Class ranges: low group (below -0.5), middle group (-0.5 to below 0.6), high group (0.6 or more)

These solved cases illustrate the format of a correct answer.
INSERT INTO assay_data (compound, experimental_system, category) VALUES
  ('NC(=O)N/N=C/c1ccc([N+](=O)[O-])o1 [Nitrofural]', 'Saccharomyces cerevisiae BY4741 SeMeCo community', 'high group'),
  ('O=C1c2cccc3c2[C@H](CCC3)CN1[C@@H]1CN2CCC1CC2 [Palonosetron]', 'Saccharomyces cerevisiae BY4741 SeMeCo community', 'middle group'),
  ('CC(C)c1nc(N(C)S(C)(=O)=O)nc(-c2ccc(F)cc2)c1/C=C/[C@@H](O)C[C@@H](O)CC(=O)O [Rosuvastatin]', 'Saccharomyces cerevisiae BY4741 SeMeCo community', 'high group'),
  ('CN(C)CCCN1c2ccccc2Sc2ccc(Cl)cc21 [Chlorpromazine HCl]', 'Saccharomyces cerevisiae BY4741 SeMeCo community', 'middle group'),
  ('CC[C@H]1OC(=O)[C@H](C)[C@@H](O[C@H]2C[C@@](C)(OC)[C@@H](O)[C@H](C)O2)[C@H](C)[C@@H](O[C@@H]2O[C@H](C)C[C@H](N(C)C)[C@H]2O)[C@](C)(O)C[C@@H](C)C(=O)[C@H](C)[C@@H](O)[C@]1(C)O [Erythromycin]', 'Saccharomyces cerevisiae BY4741 SeMeCo community', 'high group');

INPUT: Form: Item = CCCCC(=O)O[C@H]1CC[C@H]2[C@@H]3CCc4cc(O)ccc4[C@H]3CC[C@]12C [Estradiol valerate] ; Class = ?
OUTPUT: middle group

INPUT: Please do the same for COc1ccnc(C[S+]([O-])c2nc3cc(-n4cccc4)ccc3[nH]2)c1C (centres undefined) [Ilaprazole] as well.
OUTPUT: high group

INPUT: Please do the same for Cn1nnc(-c2ccc(-c3ccc(N4C[C@H](COP(=O)(O)O)OC4=O)cc3F)cn2)n1 [Tedizolid Phosphate] as well.
OUTPUT: low group

INPUT: Please do the same for CC(C)n1c(/C=C/C(O)CC(O)CC(=O)O)c(-c2ccc(F)cc2)c2ccccc21 (centres undefined) [Fluvastatin Sodium] as well.
OUTPUT: high group

INPUT: Please do the same for CCC(=O)Oc1ccc2c(c1)CCC1C2CCC2(C)C(OC(=O)CC)CCC12 (stereo not drawn) [Estradiol dipropionate(17-Beta-Estradiol-3,17-Dipropionate)] as well.
OUTPUT: middle group

INPUT: Please do the same for CN(C)CCC=C1c2ccccc2C=Cc2ccccc21 [Cyclobenzaprine HCl] as well.
OUTPUT: low group

INPUT: Please do the same for Cc1ccccc1C(OCCN(C)C)c1ccccc1 (centres undefined) [Orphenadrine Citrate] as well.
OUTPUT: low group

Ref: the supplement of paper PMC8975748
